# ASSAY_SYSTEM: CDK6/cyc D1 (Homo sapiens, UniProt Q00534)
# Sequence (Q00534 whole entry): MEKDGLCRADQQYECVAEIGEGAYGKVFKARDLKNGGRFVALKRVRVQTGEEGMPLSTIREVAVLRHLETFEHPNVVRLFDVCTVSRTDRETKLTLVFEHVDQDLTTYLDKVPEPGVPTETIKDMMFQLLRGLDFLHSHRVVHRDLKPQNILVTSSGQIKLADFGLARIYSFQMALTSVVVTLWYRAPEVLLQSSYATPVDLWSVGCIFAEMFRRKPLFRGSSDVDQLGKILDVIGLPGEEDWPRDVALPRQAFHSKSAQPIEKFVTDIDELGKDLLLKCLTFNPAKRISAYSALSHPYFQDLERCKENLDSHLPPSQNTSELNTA
# Sequence (P24385 whole entry partner): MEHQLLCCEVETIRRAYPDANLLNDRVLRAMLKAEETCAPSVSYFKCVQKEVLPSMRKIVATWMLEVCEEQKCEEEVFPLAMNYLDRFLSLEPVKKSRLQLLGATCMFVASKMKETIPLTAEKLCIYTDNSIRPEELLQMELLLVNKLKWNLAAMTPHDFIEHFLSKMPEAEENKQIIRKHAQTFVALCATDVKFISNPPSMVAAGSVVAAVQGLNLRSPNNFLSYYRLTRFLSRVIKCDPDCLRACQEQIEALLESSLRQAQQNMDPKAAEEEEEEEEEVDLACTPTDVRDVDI
# ASSAY_COMMENT: Reaction Biology radiometric filter binding kinase assay (10-point IC50 converted to Ki)
# CONDITION_PARAMETERS: ATP near Km; Ki calculated from 10-point IC50
# Description: Ki values for each target were calculated and compared for the two drugs (Fig. 1b–d). The ATP concentration was near the Km values for the respective kinases. For each kinase, an IC50 value was calculated from a 10-point concentration curve of the test article and converted to Ki values.
PROPERTY: Ki (nM)
Reply with just the number (in nM).

Lab note: need Ki for CN1CC[C@@H](c2c(O)cc(O)c3c(=O)cc(-c4ccc(C(F)(F)F)cc4Cl)oc23)[C@@H]1CO on CDK6/cyc D1 (Homo sapiens, UniProt Q00534), anyone have it? 2.92

###

# ASSAY_SYSTEM: ICK (Homo sapiens, UniProt Q9UPZ9)
# Sequence (Q9UPZ9 whole entry): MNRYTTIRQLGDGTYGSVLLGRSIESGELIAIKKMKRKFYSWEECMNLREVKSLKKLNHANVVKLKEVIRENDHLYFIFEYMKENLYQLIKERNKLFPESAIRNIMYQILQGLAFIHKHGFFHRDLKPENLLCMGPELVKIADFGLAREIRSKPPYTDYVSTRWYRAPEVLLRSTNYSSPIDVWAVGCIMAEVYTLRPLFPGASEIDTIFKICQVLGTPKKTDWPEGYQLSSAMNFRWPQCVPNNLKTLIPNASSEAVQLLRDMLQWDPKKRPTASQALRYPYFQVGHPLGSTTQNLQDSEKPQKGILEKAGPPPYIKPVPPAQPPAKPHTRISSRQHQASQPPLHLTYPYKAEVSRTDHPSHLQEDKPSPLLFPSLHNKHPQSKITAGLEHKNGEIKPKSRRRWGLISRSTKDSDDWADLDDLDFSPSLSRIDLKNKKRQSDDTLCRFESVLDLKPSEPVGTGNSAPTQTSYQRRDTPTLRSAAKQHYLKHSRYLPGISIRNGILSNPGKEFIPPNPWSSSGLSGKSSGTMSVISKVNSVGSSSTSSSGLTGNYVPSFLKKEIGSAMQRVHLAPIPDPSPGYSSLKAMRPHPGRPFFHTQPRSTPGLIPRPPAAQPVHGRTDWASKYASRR
PROPERTY: pKi
// pKi is dimensionless: -log10 of concentration (M)

Lab note: need pKi for CN1CC[C@@H](c2c(O)cc(O)c3c(=O)cc(-c4ccc(C(F)(F)F)cc4Cl)oc23)[C@@H]1CO on ICK (Homo sapiens, UniProt Q9UPZ9), anyone have it? 6.32

Let us move to another entry and its pKi.
Lab note: need pKi for CN1CC[C@H](c2c(O)cc(O)c3c(=O)cc(-c4ccccc4Cl)oc23)[C@H](O)C1 [Flavopiridol, reference compound] on ICK (Homo sapiens, UniProt Q9UPZ9), anyone have it? 7.93

###

# ASSAY_SYSTEM: CDK4/cyc D1 (Homo sapiens)
# Sequence (P11802 whole entry, one chain of several): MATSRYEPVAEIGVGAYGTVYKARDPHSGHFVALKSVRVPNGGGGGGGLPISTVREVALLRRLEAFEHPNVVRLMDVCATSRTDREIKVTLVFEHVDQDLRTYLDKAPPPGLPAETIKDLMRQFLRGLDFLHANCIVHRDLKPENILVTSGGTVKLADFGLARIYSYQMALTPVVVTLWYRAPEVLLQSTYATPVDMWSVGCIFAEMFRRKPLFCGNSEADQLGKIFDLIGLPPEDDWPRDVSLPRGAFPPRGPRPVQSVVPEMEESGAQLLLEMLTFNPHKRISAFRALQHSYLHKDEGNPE
# ASSAY_COMMENT: Reaction Biology radiometric filter binding kinase assay (10-point IC50 converted to Ki)
# CONDITION_PARAMETERS: ATP near Km; Ki calculated from 10-point IC50
# Experimental: Ki values for each target were calculated and compared for the two drugs (Fig. 1b–d). The ATP concentration was near the Km values for the respective kinases. For each kinase, an IC50 value was calculated from a 10-point concentration curve of the test article and converted to Ki values.
PROPERTY: Ki
Express your answer as a number followed by its unit.

Using the record for CN1CC[C@@H](c2c(O)cc(O)c3c(=O)cc(-c4ccc(C(F)(F)F)cc4Cl)oc23)[C@@H]1CO [Voruciclib] , report its Ki. 3.96 nM

###

# ASSAY_SYSTEM: CDK1/cyc B (Homo sapiens)
# Sequence (P06493 whole entry): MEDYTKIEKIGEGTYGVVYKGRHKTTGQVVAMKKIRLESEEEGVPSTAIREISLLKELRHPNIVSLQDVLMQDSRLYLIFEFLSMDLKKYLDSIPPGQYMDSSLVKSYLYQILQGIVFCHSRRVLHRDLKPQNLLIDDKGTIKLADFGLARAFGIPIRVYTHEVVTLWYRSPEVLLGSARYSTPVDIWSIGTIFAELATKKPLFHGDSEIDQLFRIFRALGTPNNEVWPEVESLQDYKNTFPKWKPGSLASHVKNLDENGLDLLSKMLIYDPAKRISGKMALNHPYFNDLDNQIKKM
# Sequence (P14635 whole entry partner): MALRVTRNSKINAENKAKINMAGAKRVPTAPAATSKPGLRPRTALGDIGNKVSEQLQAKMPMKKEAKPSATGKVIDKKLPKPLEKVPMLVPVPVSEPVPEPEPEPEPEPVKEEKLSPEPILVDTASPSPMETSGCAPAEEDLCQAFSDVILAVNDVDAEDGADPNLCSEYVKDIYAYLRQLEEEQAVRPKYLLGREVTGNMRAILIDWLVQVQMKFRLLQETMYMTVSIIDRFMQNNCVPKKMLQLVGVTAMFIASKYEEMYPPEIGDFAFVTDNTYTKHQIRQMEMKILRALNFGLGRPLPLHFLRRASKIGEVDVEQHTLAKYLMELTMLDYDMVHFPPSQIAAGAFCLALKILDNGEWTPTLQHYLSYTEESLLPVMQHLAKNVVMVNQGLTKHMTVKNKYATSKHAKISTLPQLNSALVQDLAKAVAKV
# ASSAY_COMMENT: Reaction Biology radiometric filter binding kinase assay (10-point IC50 converted to Ki)
# CONDITION_PARAMETERS: ATP near Km; Ki calculated from 10-point IC50
PROPERTY: Ki
Express your answer as a number followed by its unit.

Lab note: need Ki for CN1CC[C@@H](c2c(O)cc(O)c3c(=O)cc(-c4ccc(C(F)(F)F)cc4Cl)oc23)[C@@H]1CO [Voruciclib] on CDK1/cyc B (Homo sapiens), anyone have it? 5.4 nM
